system: Wolbachia pipientis; experiment: Anti-Wolbachia Cell-Based Screen; type: functional; parameters: scale not given: in the data most compounds retested in dose-response had high values; details: 5 µM
Screen size: about 48,000 compounds; about 13,000 (27%) showed an effect of 50% or more. The list shows a part of the results.
Readout: Percent Effect (%)
Quick note: give the figure in %, leave out the unit.

COc1ccc(NC(C)=O)c(N2CCN(C(C)=O)CC2)n1 | 4.921
O=C(CC1COCCN1)NCCc1nc(Cc2ccccc2)no1 (configuration not stated) | 18.61
Cc1cc(NCCNc2ccc(C#N)cn2)nc(C)n1 | -1.6
COC(=O)N1CC2=CC(C)(C)COc3ccc(OC)c(c32)C1 | 125.4

Exam item: Bench note: what Percent Effect did COc1ccccc1C(C)N1CCN(S(C)(=O)=O)CC1 (configuration not stated) show?
Marked response: -21.28

Exam item: Try `Cl.Nc1ncc(-c2csc(NC(=O)C[C@H]3COCCN3)n2)cn1` next.
Marked response: 103.3

Exam item: Try `COc1ccc2c3c1CN(S(C)(=O)=O)CC3=CC(C)(C)CO2` next.
Marked response: 106.6

Exam item: Try `CNc1ncc(-c2csc(NC(=O)C[C@H]3COCCN3)n2)cn1.Cl` next.
Marked response: 71.35

Exam item: Try `O=C(NS(=O)(=O)c1cnn(-c2ccccc2F)c1)c1ccco1` next.
Marked response: -14.51

Exam item: Try `COc1ccc2c3c1CN(C(C)=O)CC3=CC(C)(C)CO2` next.
Marked response: 80.53

Exam item: Try Cc1cnc2n(c1=O)C(CC(=O)NCc1cccnc1)CS2 (configuration not stated) next.
Marked response: 115

Exam item: Try CSc1ccc(C(C)NC(=O)c2cc(C)on2)cc1 (configuration not stated) next.
Marked response: -17.95
